Form field: protein stability index (one value per entry).
- procedure.details: protein stability index of a GFP-peptide fusion (yeast GPS) (PSI 1-4); higher = more stable; sorted into four equal gates, so the index is relative within each strain
- experimental.context: san1∆
Hey, just send me the number, nothing else.

Answered examples (5):
ordered.residues	protein stability index
LSCEKITHYAVRGGNIE [RRI1]	2.51
RPTEKPVGRELDPISLI [RPN13]	3.33
EKLINNSDDCMMEEIIN [ECM29]	3.1
NRKRIVTLRKSLYTNTS [RPL3]	1.66
WLEEYHPKLIKNKSGKI [FAS1]	1.42

Q: Value lookup for protein stability index; key = TDLIREKTMMTFGKPEE [YCS4]
A: 3.19

Q: Value lookup for protein stability index; key = SMNVTLGVPRIKEIINA [RPO31]
A: 2.13

Q: Value lookup for protein stability index; key = LGSQSKSDEGGSYLCTS [YOR098C/NUP1]
A: 3.14

Q: Value lookup for protein stability index; key = EHGMNAPSVPEFIYLTK [SNF2]
A: 2.91

Q: Value lookup for protein stability index; key = NTFNYDVKISNDFFDNG [RPN4]
A: 2.52

Q: Value lookup for protein stability index; key = FLQPLLLVGLIKTFYWL [NUT1]
A: 1.5

* * *

- procedure.details: protein stability index of a GFP-peptide fusion (yeast GPS) (PSI 1-4); higher = more stable; sorted into four equal gates, so the index is relative within each strain
- experimental.context: ubr1∆
Form field: protein stability index (one value per entry).
Hey, just send me the number, nothing else.

Q: Value lookup for protein stability index; key = ISELPPQIRQEIEQLDQ [YGL172W/NUP49]
A: 3.06

Q: Value lookup for protein stability index; key = QQQDQPEQSEQPEQHQD [RPN10]
A: 3.24

Q: Value lookup for protein stability index; key = VGGHNVTIREQINIMPS [SIR3]
A: 2.94

Q: Value lookup for protein stability index; key = LSKINAIQLDYSTANEY [RPN3]
A: 3.06

Q: Value lookup for protein stability index; key = VGHLSILPQQSKLKLKN [ECM29]
A: 2.5

Q: Value lookup for protein stability index; key = AEKFVPIDIFQIIRRVK [SIR3]
A: 1.16

Q: Value lookup for protein stability index; key = DDDINWQELARSTDEFN [RPT5]
A: 3.2

Q: Value lookup for protein stability index; key = QQQGQIPQSQQVPQVRS [SNF5]
A: 2.36

* * *

- procedure.details: protein stability index of a GFP-peptide fusion (yeast GPS) (PSI 1-4); higher = more stable; sorted into four equal gates, so the index is relative within each strain
- experimental.context: doa10∆
Decide by protein stability index: equal to or exceeding 3 means met, less means not met.

Use the examples below as a reference point.
ordered.residues	assigned.category
ANPAGASQPEPTTNEPA [YJL041W/NSP1]	not met
MEDPPSTVSGELNDNPA [YMR153W/NUP53]	not met
AALDLSHTQNIGHLIKT [SMC2]	not met
DDQCMLITTYSKLSKNI [SIN4]	not met
EAVKQAAKIIYLAHEDN [PRE10]	not met
DLSYIEFLFESLKNDLP [ECM29]	not met
SPTESYSDIGGLESQIQ [RPT2]	met
VIVELLPQSEWKAPSSI [DIS3]	not met

Q: Is reported protein stability index greater than or equal to 3 here: NILTTHLSHPGTNKDMI [ECM29]
A: not met

Q: Is reported protein stability index greater than or equal to 3 here: MPGGYFHSEISPDSTVN [YAR002W/NUP60]
A: not met

Q: Is reported protein stability index greater than or equal to 3 here: LMMVEKVPDSTYDMVGG [RPT6]
A: not met

Q: Is reported protein stability index greater than or equal to 3 here: SVVKKEDNKYAIAGNST [RGR1]
A: met
